# method description: endothelial E-selectin expression blockers – imaging, HUVEC, immunofluorescence, MLSMR starter and 10KST1 sets, primary screen (AID 487);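 further: signal is fraction of cell area covered by stained E-selectin grains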
# experimental setup: HUVEC TNFalpha-induced E-selectin immunofluorescence imaging, at 2 µM; active compounds read high
Hi, to clarify the labels: yes covers inhibition from -70% upward, no covers anything below -70%.

Exam item: Does "CCc1nc(N)nc(N)c1-c1ccc(Cl)cc1" have a reported inhibition of at least -70%?
Marked response: no

Exam item: Does "O=C(CN1CCCN(S(=O)(=O)c2ccc(Br)cc2)CC1)Nc1ccc2cn[nH]c2c1" have a reported inhibition of at least -70%?
Marked response: yes

Exam item: Does "O=C(c1ccco1)N1CCN(c2c(-c3ccccc3)c3cc(Cl)ccc3[nH]c2=O)CC1" have a reported inhibition of at least -70%?
Marked response: no

Exam item: Does "O=C(c1cccs1)c1cn(CC(=O)N2CCc3ccccc3C2)c2ccccc12" have a reported inhibition of at least -70%?
Marked response: no

Exam item: Does "COc1ccc(S(=O)(=O)n2ccnc2)c2cccnc12" have a reported inhibition of at least -70%?
Marked response: yes

Exam item: Does "O=C(CSc1ncnc2sc3c(c12)CCCCC3)NCc1ccco1" have a reported inhibition of at least -70%?
Marked response: no

Exam item: Does "COc1ccc(CCNS(=O)(=O)c2ccc(C(=O)NCc3ccco3)cc2)cc1OC" have a reported inhibition of at least -70%?
Marked response: yes

Exam item: Does O=C1CSC(c2cn(-c3ccccc3)nc2-c2cccs2)N1CC1CCCO1 (stereo not drawn) have a reported inhibition of at least -70%?
Marked response: no

Exam item: Does "COc1ccc(-c2nnc3ccc(SC(C(C)=O)C(C)=O)nn23)cc1OC" have a reported inhibition of at least -70%?
Marked response: yes

Exam item: Does O=C(c1ccco1)N1CCN(CC(=O)N(C2CCCCC2)C2CCS(=O)(=O)C2)CC1 (stereo not drawn) have a reported inhibition of at least -70%?
Marked response: yes

Exam item: Does "CN(CC(=O)N1CCN(C2CCCCC2)CC1)S(=O)(=O)c1cccc2nsnc12" have a reported inhibition of at least -70%?
Marked response: yes

Exam item: Does "Cc1ccc(S(=O)(=O)n2nc(OC(=O)c3ccco3)cc2N)cc1" have a reported inhibition of at least -70%?
Marked response: yes

Exam item: Does COc1ccc(-c2[nH]nc3c2C(c2ccccc2OC(=O)N2CCOCC2)C(C#N)=C(N)O3)cc1 (stereo not drawn) have a reported inhibition of at least -70%?
Marked response: yes

Exam item: Does "CCOC(=O)CN1C2=NCCN2c2ccccc21" have a reported inhibition of at least -70%?
Marked response: no

Exam item: Does "C=CCn1c(=O)[nH]c2cc(C(=O)N3CCN(c4cc(C)ccc4C)CC3)ccc2c1=O" have a reported inhibition of at least -70%?
Marked response: yes

Exam item: Does "COc1ccc(N(CC(=O)N2CCN(Cc3ccc4c(c3)OCO4)CC2)S(C)(=O)=O)cc1OC" have a reported inhibition of at least -70%?
Marked response: yes

Exam item: Does "Cc1ccc(C(C)C)c(OCc2nnc(SCC(=O)Nc3ncc(C)s3)n2C)c1" have a reported inhibition of at least -70%?
Marked response: yes

Exam item: Does "CCN(CC)CCCN(Cc1cc2cc(OC)ccc2[nH]c1=O)C(=O)Nc1ccccc1" have a reported inhibition of at least -70%?
Marked response: yes

Exam item: Does "CCCCCn1c(=O)[nH]c2cc(C(=O)NCCN3CCOCC3)ccc2c1=O" have a reported inhibition of at least -70%?
Marked response: yes

Exam item: Does CCCC1O[C@@H]2C[C@H]3[C@@H]4CCC5=CC(=O)C=C[C@]5(C)[C@H]4[C@@H](O)C[C@]3(C)[C@]2(C(=O)CO)O1 (stereo partly drawn) have a reported inhibition of at least -70%?
Marked response: no

Exam item: Does "CCCN(CCC)S(=O)(=O)c1ccc(C(=O)Nc2nnc(-c3cccc(OC)c3)o2)cc1" have a reported inhibition of at least -70%?
Marked response: yes

Exam item: Does "CN(C)CC(=O)N1c2ccccc2CCc2ccc(NC(=O)c3ccc(N)cc3)cc21" have a reported inhibition of at least -70%?
Marked response: no

Exam item: Does "COc1cc(-c2nc(-c3cccc(C(F)(F)F)c3)no2)cc(OC)c1OC" have a reported inhibition of at least -70%?
Marked response: no

Exam item: Does "Cc1ccccc1S(=O)(=O)Cc1ccc(C(=O)NCc2cccnc2)o1" have a reported inhibition of at least -70%?
Marked response: yes

Exam item: Does "CCCn1nc(NS(=O)(=O)c2ccccc2)c2cc3ccccc3nc21" have a reported inhibition of at least -70%?
Marked response: yes

Exam item: Does Cc1ccc2c(c1)c1c(n2CC(O)Cn2c(C)nc3ccccc32)/C(=N\O)CCC1 (stereo not drawn) have a reported inhibition of at least -70%?
Marked response: yes

Exam item: Does "Clc1ccccc1-c1nnc2sc(-c3ccccn3)nn12" have a reported inhibition of at least -70%?
Marked response: no

Exam item: Does "Cc1nc(-c2cnn(-c3ccccc3)c2)c2cc(C)oc2n1" have a reported inhibition of at least -70%?
Marked response: yes

Exam item: Does N#CCCCN1C(=O)C(O)(CC(=O)c2ccc3c(c2)OCCO3)c2ccccc21 (stereo not drawn) have a reported inhibition of at least -70%?
Marked response: yes

Exam item: Does "CCN(CC)C(=O)CN(c1cc(Cl)ccc1OC)S(C)(=O)=O" have a reported inhibition of at least -70%?
Marked response: yes

Exam item: Does "Cc1cc(NC(=O)CSc2nc3ccsc3c(=O)n2NC(=O)c2ccccc2)no1" have a reported inhibition of at least -70%?
Marked response: no

Exam item: Does "Cn1c(=O)cc(SCC(=O)N2CCOCC2)c2ccc(Cl)cc21" have a reported inhibition of at least -70%?
Marked response: yes

Exam item: Does "C=C(C)COc1ccc(-c2nc(N)ncc2Oc2ccccc2OCC)c(O)c1" have a reported inhibition of at least -70%?
Marked response: yes

Exam item: Does "C=CCNC(=O)CNS(=O)(=O)c1ccc(F)cc1" have a reported inhibition of at least -70%?
Marked response: yes

Exam item: Does "CC(C)(C)C(=O)Oc1cc(N)n(S(=O)(=O)c2ccccc2)n1" have a reported inhibition of at least -70%?
Marked response: yes

Exam item: Does "O=C(Cc1ccsc1-c1ccccc1)NO" have a reported inhibition of at least -70%?
Marked response: yes

Exam item: Does "O=C(COc1ccc(S(=O)(=O)N2CCCC2)cc1Cl)NC1CC1" have a reported inhibition of at least -70%?
Marked response: yes

Exam item: Does "CCOC(=O)CSc1nnc(CNC(=O)c2ccc(OC)c(OC)c2)n1C" have a reported inhibition of at least -70%?
Marked response: no

Exam item: Does "CCN1CCN(c2nc(-c3cccnc3)nc3ccccc23)CC1" have a reported inhibition of at least -70%?
Marked response: yes

Exam item: Does "CCCCOc1ccc(NC(=O)Cn2c(=O)ccc3c(C)cc(C)nc32)cc1" have a reported inhibition of at least -70%?
Marked response: no

Exam item: Does "CC(=O)Nc1ccc(NC(=O)c2ccccc2F)cc1" have a reported inhibition of at least -70%?
Marked response: yes

Exam item: Does COC(=O)c1nc2n(n1)C(c1ccc(OC)c(OC)c1)C(C(=O)OC1CCCCC1)=C(C)N2 (stereo not drawn) have a reported inhibition of at least -70%?
Marked response: yes
